Details: in ethyl acetate, 318.15 K
measure_name: solubility (mole fraction)
Write the number on its own, no unit after it.

Fill in the blank: the reported solubility (mole fraction) of OCC1(O)OC[C@@H](O)[C@@H](O)[C@H]1O (stereo partly specified) is ____.
0.00379

###

Conditions: in ethyl acetate, 283.15 K
measure_name: solubility (mole fraction)
Write the number on its own, no unit after it.

Fill in the blank: the reported solubility (mole fraction) of OCC1(O)OC[C@@H](O)[C@@H](O)[C@H]1O (stereo partly specified) is ____.
0.00077

###

Conditions: in n-propanol, 313.15 K
measure_name: solubility (mole fraction)
Write the number on its own, no unit after it.

Fill in the blank: the reported solubility (mole fraction) of OCC1(O)OC[C@@H](O)[C@@H](O)[C@H]1O (stereo partly specified) is ____.
0.00751
